# tested.on: T1, 006 PSMA Fab (biotinylated (site not given))
# T1 construct: Biotinylated PSMA Fab captured on neutravidin coated plates for the clonal phage ELISA; also called Anti-PSMA Fab
# assay.info: clonal phage ELISA, biotinylated PSMA Fab on neutravidin plate, anti-M13 HRP detection;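 also: crude clonal phage supernatants added to wells pretreated with blocking buffer either with or without PSMA antigen, bound phage read after washing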
Where no end group is shown, it is not given here.
Catalogue of binders with associated Phage binding ELISA signal, Anti-PSMA Fab
assay.readout: Phage binding ELISA signal, Anti-PSMA Fab

binder="WPKLCTPPWMCTVD (cysteine pairing not given here; also: displayed on phage as fusion to pIII, pIII and linker sequence not given here, not shown: fused to pIII of the bacteriophage) [Phage-2497]" numeric_result=1.21
binder="EVKWCIPDWMCSVI (cysteine pairing not given here; also: fused to phage pIII, linker and fusion site not given here, not shown: fused to pIII of the bacteriophage) [Phage-2510]" numeric_result=1.19
binder="GEKWCIPEWMCQDV (cysteine pairing not given here; also: displayed on phage as fusion to pIII, pIII and linker sequence not given here, not shown: fused to pIII of the bacteriophage) [Phage-2499]" numeric_result=1.21
binder="HPSWCTPAWMCQGF (cysteine pairing not given here; also: fused to phage pIII, linker and fusion site not given here, not shown: fused to pIII of the bacteriophage) [Phage-2508]" numeric_result=1.2
binder="LGKWCIPDWMCSGL (cysteine pairing not given here; also: displayed on phage as fusion to pIII, pIII and linker sequence not given here, not shown: fused to pIII of the bacteriophage) [Phage-2505]" numeric_result=1.2
